Just for reference, paper PMC10488223 is where these values come from.

- tested_on: UniProtKB P56818
- Sequence (P56818 46-501): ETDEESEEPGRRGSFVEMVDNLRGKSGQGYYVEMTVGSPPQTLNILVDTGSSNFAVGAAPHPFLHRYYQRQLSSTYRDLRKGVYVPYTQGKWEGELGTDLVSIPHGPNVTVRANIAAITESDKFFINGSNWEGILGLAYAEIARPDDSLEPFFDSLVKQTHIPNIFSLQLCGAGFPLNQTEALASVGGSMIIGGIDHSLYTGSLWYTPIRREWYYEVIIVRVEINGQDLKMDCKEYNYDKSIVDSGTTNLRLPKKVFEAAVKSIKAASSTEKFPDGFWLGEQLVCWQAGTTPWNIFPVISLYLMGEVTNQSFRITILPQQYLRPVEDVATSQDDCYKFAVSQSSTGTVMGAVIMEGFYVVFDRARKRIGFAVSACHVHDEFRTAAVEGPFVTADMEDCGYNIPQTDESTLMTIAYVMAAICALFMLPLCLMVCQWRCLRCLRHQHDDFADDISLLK
Each record is given criterion met if its reported IC50 is strictly below 50 µM. Records at or above 50 µM are given criterion not met.

Lookup: I wonder whether "O=C(OCCc1cc(O)c(O)cc1[N+](=O)[O-])C1CCN(Cc2ccccc2)CC1" has IC50 below 50 µM. Can you tell?
Found: criterion not met

Lookup: Subsequent entry: "O=C(OCCc1ccc(O)cc1)C1CCN(Cc2ccccc2)CC1"
Found: criterion not met

Lookup: Please do the same for "O=C(OCCc1ccc(O)c(O)c1)C1CCN(Cc2ccccc2)CC1" as well.
Found: criterion met

Lookup: Next compound up: "COc1cc(CCOC(=O)C2CCN(Cc3ccccc3)CC2)ccc1OC(C)=O"
Found: criterion met

More entries:
Lookup: Does the reported IC50 of the following compound sit strictly below 50 µM? "CC(=O)Oc1ccc(CCOC(=O)C2CCN(Cc3ccccc3)CC2)cc1"
Found: criterion not met

Lookup: Again, but for "COc1cc(CCOC(=O)C2CCN(Cc3ccccc3)CC2)ccc1O"
Found: criterion not met

Lookup: Queued: "CC(=O)Oc1ccc(CCOC(=O)C2CCN(Cc3ccccc3)CC2)cc1OC(C)=O"
Found: criterion met

* * *

- tested_on: Acetylcholinesterase from Electrophorus electricus (AChE) (Electrophorus electricus)
- Construct: purchased Sigma-Aldrich (Milano, Italy)
- Sequence (O42275 24-633): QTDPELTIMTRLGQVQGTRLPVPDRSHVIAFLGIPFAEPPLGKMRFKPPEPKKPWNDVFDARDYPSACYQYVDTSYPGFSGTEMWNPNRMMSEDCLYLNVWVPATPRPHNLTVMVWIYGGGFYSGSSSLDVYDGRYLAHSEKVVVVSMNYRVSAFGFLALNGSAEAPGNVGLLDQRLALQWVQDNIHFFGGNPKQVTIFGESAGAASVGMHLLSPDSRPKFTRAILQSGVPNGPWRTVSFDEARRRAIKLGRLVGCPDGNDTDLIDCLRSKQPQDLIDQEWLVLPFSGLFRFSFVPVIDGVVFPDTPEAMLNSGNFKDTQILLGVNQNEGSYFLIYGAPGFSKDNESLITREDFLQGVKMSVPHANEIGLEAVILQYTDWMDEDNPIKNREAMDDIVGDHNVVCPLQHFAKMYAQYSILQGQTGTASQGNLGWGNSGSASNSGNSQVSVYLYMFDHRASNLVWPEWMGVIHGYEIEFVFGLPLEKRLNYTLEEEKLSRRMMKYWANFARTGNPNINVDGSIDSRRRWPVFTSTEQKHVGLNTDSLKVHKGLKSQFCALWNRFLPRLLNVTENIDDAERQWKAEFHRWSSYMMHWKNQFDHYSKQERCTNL
- assay_summary: biochemical
- protocol_conditions: from Km and Vmax at different inhibitor concentrations
measured_attribute: mechanism of inhibition on AChE

Check out these entries, answers already filled in.
Lookup: So what does the record say about mechanism of inhibition on AChE for O=C(OCCc1ccc(O)c(O)c1)C1CCN(Cc2ccccc2)CC1 [HT1] ?
Found: uncompetitive

Lookup: What do you have for COc1cc(CCOC(=O)C2CCN(Cc3ccccc3)CC2)ccc1OC(C)=O [HT3a] ?
Found: uncompetitive

Lookup: Note, next up: CC(=O)Oc1ccc(CCOC(=O)C2CCN(Cc3ccccc3)CC2)cc1OC(C)=O [HT1a]
Found: mixed

Lookup: Same again, this time with O=C(OCCc1ccc(O)cc1)C1CCN(Cc2ccccc2)CC1 [HT4]
Found: uncompetitive

Lookup: // next record COc1cc(CCOC(=O)C2CCN(Cc3ccccc3)CC2)ccc1O [HT3]
Found: uncompetitive

***
Lookup: // query mechanism of inhibition on AChE value for entry CC(=O)Oc1ccc(CCOC(=O)C2CCN(Cc3ccccc3)CC2)cc1 [HT4a]
Found: uncompetitive
